test-name: qHTS Assay for Foot and Mouth Disease Virus Antivirals: Primary Screen against the MLPCN compound library; further: nearly all actives have a fitted effect of over 55% in size; further: potency means the concentration at half of the fitted maximal effect
recorded-conditions: FMDV antiviral cell-based qHTS; series mostly up to 57.9 µM
Among all 410,000 compounds or so, about 2,000 (0.49%) were called active. Inconclusive results (about 8%) are left out. The list comes from a sample in which actives are over-represented; it also holds close analogues and randomly drawn compounds.
endpoint-name: Potency

compound | reported-value
O=C(Nc1ccccc1Cc1ccccc1)c1ccccc1NS(=O)(=O)c1ccc(Cl)s1 | inactive
CCN1C(=O)CC(C(C)C)N(C2CCCC2)c2nc(Nc3ccc(C(=O)NC4CCN(C)CC4)cc3OC)ncc21 (configuration not stated) | inactive
COc1cc(C)c(-c2[nH]ncc2-c2csc(C)n2)c(O)c1 | inactive
Cc1nn2c(-c3cccc(NC(=O)CSc4nc5ccccc5o4)c3)nnc2c2ccccc12 | inactive
CC(C(=O)Nc1cccc(C#N)c1)n1nc(-c2ccccc2)c2c(c1=O)CCCC2 (configuration not stated) | inactive
Cc1ccc2[nH]c(CSc3nnc(NC(=O)c4ccccc4F)s3)cc(=O)c2c1 | inactive
CCc1nnc(NC(=O)c2nc(S(=O)(=O)Cc3ccccc3)ncc2Cl)s1 | 20 µM (active)
c1ccc(-c2cn3c(n2)-c2ccccc2C3)cc1 | 7.94 µM (active)
c1ccc(-c2nc3ccccn3c2-c2ccccc2)cc1 | inactive
Cc1ccc(-c2nc(CS(=O)CC(=O)N3CCN(c4ccc(F)cc4)CC3)c(C)o2)cc1 (configuration not stated) | inactive
CCc1ccc2oc(-c3cc(N=Cc4cccc(OC)c4O)ccc3O)nc2c1 | 20 µM (active)
CCOC(=O)c1cc(C)n(CC2CCC(C(=O)Nc3ccc(C(=O)OC)cc3)CC2)c1C (configuration not stated) | inactive
CCCCCc1nn2cc(-c3ccccc3)nc2s1 | 12.6 µM (active)
CCOc1ccc(CCNC(=O)c2ccc3c(c2)sc2nc(-c4ccc(F)cc4)cn23)cc1OCC | inactive
CC(C)(C)NC(=O)c1ccc(COc2ccc(Cl)cc2Cl)o1 | inactive
CC(C)C[C@H]1CN=C(N(C)C)N1CCCCc1ccccc1 | inactive
Cc1ccc(CS(=O)(=O)c2ncc(Cl)c(C(=O)Nc3nc4ccc(F)cc4s3)n2)cc1 | inactive
COc1ccc(N2CCN(C(=O)CN3CCSc4ccccc43)CC2)cc1 | inactive
Clc1ccc(-c2cn3cc(Br)ccc3n2)cc1Cl | 14.1 µM (active)
CCn1nc(-c2ccccc2)c2nc3ccccc3nc21 | inactive
O=C(N/N=C/c1cccs1)C(O)c1ccccc1 (configuration not stated) | inactive
COc1cccc(N2C(=O)C3C(C2=O)C3(c2ccccc2)c2ccccc2)c1 (configuration not stated) | 14.1 µM (active)

---

test-name: qHTS Assay for Foot and Mouth Disease Virus Antivirals: Primary Screen against the MLPCN compound library; further: nearly all actives have a fitted effect of over 55% in size
recorded-conditions: FMDV antiviral cell-based qHTS; series mostly up to 57.9 µM
Out of some 410,000 compounds screened, about 2,000 (0.49%) were called active. Not shown: some 8% with an inconclusive outcome. Calls follow the shape of the full dose curve; tested in HEK293 reporter line. The entries come from a sample that favours actives as a whole.
Outcomes: active, inactive

substance-smiles | class
CCC(=O)N1CCc2cc(S(=O)(=O)CCC(=O)N3CCN(c4ccc(C(C)=O)cc4)CC3)ccc21 | inactive
O=C(CSc1nnc(NC(=O)c2ccc3c(c2)OCO3)s1)NCc1ccco1 | active
Cc1ccc(-c2nnc(-c3ccccc3)c(N3CCOCC3)n2)cc1 | inactive
